The measured values listed here are drawn from ChEMBL document CHEMBL1155916.

assay-target: UniProt P27338
Sequence (P27338 whole entry): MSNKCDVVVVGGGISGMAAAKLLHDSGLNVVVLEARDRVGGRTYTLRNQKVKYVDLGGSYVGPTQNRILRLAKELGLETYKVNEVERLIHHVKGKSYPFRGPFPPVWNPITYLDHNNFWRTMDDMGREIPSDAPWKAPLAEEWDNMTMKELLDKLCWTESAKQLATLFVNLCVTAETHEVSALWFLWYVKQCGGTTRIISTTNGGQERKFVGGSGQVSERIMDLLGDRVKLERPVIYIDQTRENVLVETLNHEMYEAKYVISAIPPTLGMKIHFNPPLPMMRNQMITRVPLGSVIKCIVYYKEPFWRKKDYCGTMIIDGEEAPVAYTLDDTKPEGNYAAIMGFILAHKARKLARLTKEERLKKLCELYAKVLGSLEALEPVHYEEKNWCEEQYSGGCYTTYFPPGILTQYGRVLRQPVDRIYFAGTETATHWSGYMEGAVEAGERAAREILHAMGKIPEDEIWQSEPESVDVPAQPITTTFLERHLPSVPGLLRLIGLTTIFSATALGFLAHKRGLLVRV
protocol-notes: Inhibition of human recombinant MAOB
pIC50: −log10 of the molar value.
Reported pIC50 values follow for various compounds
test-readout: pIC50

>>> numeric_result("COc1ccc([C@@]2(F)C[C@H]2N)cc1 (relative stereo)")
4.74
>>> numeric_result("N[C@H]1C[C@]1(F)c1ccc(F)cc1 (relative stereo)")
5.31
>>> numeric_result("COc1ccc([C@@]2(F)C[C@H]2N)cc1OC (relative stereo)")
3.33
>>> numeric_result("N[C@H]1C[C@]1(F)c1ccc(C(F)(F)F)cc1 (relative stereo)")
5.27
>>> numeric_result("Cc1ccc([C@@]2(F)C[C@@H]2N)cc1 (relative stereo)")
4.89
>>> numeric_result("COc1ccc([C@@]2(F)C[C@@H]2N)cc1OC (relative stereo)")
3.64
>>> numeric_result("Cc1ccc([C@@]2(F)C[C@H]2N)cc1 (relative stereo)")
4.52
>>> numeric_result("N[C@@H]1C[C@]1(F)c1ccccc1 (stereo in doubt)")
4.72
>>> numeric_result("N[C@@H]1C[C@]1(F)c1ccc(F)cc1 (relative stereo)")
5.00
>>> numeric_result("N[C@]1(c2ccccc2)C[C@]1(F)c1ccccc1 (racemic)")
4.70
>>> numeric_result("N[C@H]1C[C@]1(F)c1ccc(Cl)cc1 (relative stereo)")
5.43
>>> numeric_result("COc1ccc([C@@]2(F)C[C@@H]2N)cc1 (relative stereo)")
5.29
>>> numeric_result("N[C@@H]1C[C@]1(F)c1ccc(Cl)cc1 (relative stereo)")
5.32
>>> numeric_result("N[C@H]1C[C@]1(F)c1ccccc1 (relative stereo)")
5.19
>>> numeric_result("N[C@@H]1C[C@]1(F)c1ccc(C(F)(F)F)cc1 (relative stereo)")
5.15

====

Reported logD values follow for various molecules
protocol-notes: Lipophilicity, log D at pH 7.4
Type: physicochemical
test-context: buffer
test-readout: logD

>>> numeric_result("N[C@H]1C[C@]1(F)c1ccc(F)cc1 (relative stereo)")
1.6
>>> numeric_result("N[C@@H]1C[C@]1(F)c1ccc(C(F)(F)F)cc1 (relative stereo)")
3.13
>>> numeric_result("Cc1ccc([C@@]2(F)C[C@@H]2N)cc1 (relative stereo)")
1.83
>>> numeric_result("N[C@@H]1C[C@]1(F)c1ccc(Cl)cc1 (relative stereo)")
2.66
>>> numeric_result("N[C@H]1C[C@]1(F)c1ccc(Cl)cc1 (relative stereo)")
2.23
>>> numeric_result("N[C@@H]1C[C@]1(F)c1ccc(F)cc1 (relative stereo)")
2.14
>>> numeric_result("N[C@@H]1C[C@@H]1c1ccccc1 (relative stereo)")
1.41
>>> numeric_result("COc1ccc([C@@]2(F)C[C@@H]2N)cc1OC (relative stereo)")
0.58
>>> numeric_result("N[C@H]1C[C@]1(F)c1ccc(C(F)(F)F)cc1 (relative stereo)")
2.66
>>> numeric_result("N[C@@H]1C[C@]1(F)c1ccccc1 (stereo in doubt)")
1.78
>>> numeric_result("N[C@H]1C[C@]1(F)c1ccccc1 (relative stereo)")
1.53

====

protocol-notes: Dissociation constant, pKa by titrimetric method
Type: physicochemical
test-readout: pKa

>>> numeric_result("COc1ccc([C@@]2(F)C[C@@H]2N)cc1OC (relative stereo)")
7.4
>>> numeric_result("N[C@@H]1C[C@@H]1c1ccccc1 (relative stereo)")
8.47
>>> numeric_result("N[C@]1(c2ccccc2)C[C@]1(F)c1ccccc1 (racemic)")
5.8
>>> numeric_result("N[C@@H]1C[C@]1(F)c1ccc(C(F)(F)F)cc1 (relative stereo)")
6.6
>>> numeric_result("Cc1ccc([C@@]2(F)C[C@@H]2N)cc1 (relative stereo)")
7.41

====

assay-target: Amine oxidase [flavin-containing] A (Homo sapiens, UniProt P21397)
Sequence (P21397 whole entry): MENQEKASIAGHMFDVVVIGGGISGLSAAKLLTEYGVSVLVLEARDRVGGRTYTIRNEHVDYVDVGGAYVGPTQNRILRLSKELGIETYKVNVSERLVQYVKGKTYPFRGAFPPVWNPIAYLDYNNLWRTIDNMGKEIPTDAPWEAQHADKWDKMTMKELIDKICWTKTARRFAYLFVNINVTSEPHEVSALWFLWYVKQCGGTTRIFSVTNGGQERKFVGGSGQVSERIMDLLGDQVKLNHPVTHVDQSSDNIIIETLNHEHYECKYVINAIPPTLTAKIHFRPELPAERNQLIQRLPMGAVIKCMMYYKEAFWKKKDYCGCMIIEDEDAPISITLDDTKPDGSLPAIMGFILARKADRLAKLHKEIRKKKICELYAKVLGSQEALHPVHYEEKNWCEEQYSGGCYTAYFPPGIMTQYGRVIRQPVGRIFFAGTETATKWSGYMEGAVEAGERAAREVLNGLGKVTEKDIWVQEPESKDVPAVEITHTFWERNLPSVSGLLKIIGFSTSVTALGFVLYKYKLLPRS
protocol-notes: Inhibition of human recombinant MAOA
pKi: −log10 of the molar value.
test-readout: pKi

>>> numeric_result("COc1ccc(/C(=C\\F)CN)cc1OC")
3.64

====

assay-target: Amine oxidase [flavin-containing] A (Homo sapiens, UniProt P21397)
protocol-notes: Inhibition of human recombinant MAOA
test-context: read-out: IC50
test-readout: IC50 (µM)

>>> numeric_result("N[C@@H]1C[C@]1(F)c1ccc(Cl)cc1 (relative stereo)")
89
>>> numeric_result("N[C@H]1C[C@]1(F)c1ccccc1 (relative stereo)")
12
>>> numeric_result("COc1ccc([C@@]2(F)C[C@@H]2N)cc1OC (relative stereo)")
47
>>> numeric_result("Cc1ccc([C@@]2(F)C[C@@H]2N)cc1 (relative stereo)")
13
>>> numeric_result("N[C@@H]1C[C@]1(F)c1ccc(C(F)(F)F)cc1 (relative stereo)")
76
>>> numeric_result("N[C@]1(c2ccccc2)C[C@]1(F)c1ccccc1 (racemic)")
10
>>> numeric_result("N[C@@H]1C[C@]1(F)c1ccccc1 (stereo in doubt)")
65
>>> numeric_result("N[C@H]1C[C@]1(F)c1ccc(C(F)(F)F)cc1 (relative stereo)")
0.8
>>> numeric_result("COc1ccc([C@@]2(F)C[C@@H]2N)cc1 (relative stereo)")
14
>>> numeric_result("NC[C@@]1(c2ccccc2)C[C@@H]1F")
320
>>> numeric_result("N[C@H]1C[C@]1(F)c1ccc(F)cc1 (relative stereo)")
3.6
>>> numeric_result("N[C@@H]1C[C@]1(F)c1ccc(F)cc1 (relative stereo)")
270
>>> numeric_result("N[C@H]1C[C@]1(F)c1ccc(Cl)cc1 (relative stereo)")
1.6
>>> numeric_result("Cc1ccc([C@@]2(F)C[C@H]2N)cc1 (relative stereo)")
230

====

protocol-notes: Dissociation constant, pKa by titrimetric method
Type: physicochemical
test-readout: pKa

>>> numeric_result("N[C@@H]1C[C@]1(F)c1ccc(Cl)cc1 (relative stereo)")
6.81
>>> numeric_result("Cc1ccc([C@@]2(F)C[C@H]2N)cc1 (relative stereo)")
7.04
>>> numeric_result("COc1ccc([C@@]2(F)C[C@@H]2N)cc1 (relative stereo)")
7.5
>>> numeric_result("N[C@H]1C[C@]1(F)c1ccc(F)cc1 (relative stereo)")
7.31
>>> numeric_result("N[C@H]1C[C@]1(F)c1ccc(Cl)cc1 (relative stereo)")
7.19
>>> numeric_result("N[C@H]1C[C@]1(F)c1ccc(C(F)(F)F)cc1 (relative stereo)")
7
>>> numeric_result("N[C@@H]1C[C@]1(F)c1ccc(F)cc1 (relative stereo)")
6.88

====

Organism: Homo sapiens
protocol-notes: Selectivity for human recombinant MAOB over human recombinant MAOA
test-readout: Ratio IC50

>>> numeric_result("N[C@H]1C[C@]1(F)c1ccc(Cl)cc1 (relative stereo)")
2.3
>>> numeric_result("N[C@@]1(c2ccccc2)C[C@@H]1F (relative stereo)")
100
>>> numeric_result("Cc1ccc([C@@]2(F)C[C@@H]2N)cc1 (relative stereo)")
1
>>> numeric_result("N[C@]1(c2ccccc2)C[C@]1(F)c1ccccc1 (racemic)")
2
>>> numeric_result("N[C@H]1C[C@]1(F)c1ccc(F)cc1 (relative stereo)")
1.4
>>> numeric_result("COc1ccc([C@@]2(F)C[C@@H]2N)cc1OC (relative stereo)")
4.9
>>> numeric_result("N[C@H]1C[C@]1(F)c1ccc(C(F)(F)F)cc1 (relative stereo)")
6.8

====

Species: Homo sapiens
protocol-notes: Selectivity for human recombinant MAOA over human recombinant MAOB
test-readout: Ratio IC50

>>> numeric_result("N[C@@H]1C[C@]1(F)c1ccccc1 (stereo in doubt)")
3.4
>>> numeric_result("COc1ccc([C@@]2(F)C[C@@H]2N)cc1 (relative stereo)")
2.8
>>> numeric_result("N[C@@H]1C[C@]1(F)c1ccc(C(F)(F)F)cc1 (relative stereo)")
10.7
>>> numeric_result("N[C@@H]1C[C@]1(F)c1ccc(F)cc1 (relative stereo)")
27
>>> numeric_result("Cc1ccc([C@@]2(F)C[C@H]2N)cc1 (relative stereo)")
7.7
>>> numeric_result("N[C@@H]1C[C@]1(F)c1ccc(Cl)cc1 (relative stereo)")
18.5
>>> numeric_result("N[C@H]1C[C@]1(F)c1ccccc1 (relative stereo)")
2
